- System: Tubulin
- Test Summary: Inhibition of tubulin polymerization (unknown origin) measured every 5 mins by fluorescence assay
- Assay type: protein-complex assay, Homo sapiens
Value Type: pIC50
Hey, just a heads up that pIC50 is the negative log base 10 of the concentration in molar.

-- ask Could you share which pIC50 value was measured for `COc1ccc(CN(C(=O)CSc2nc3ccccc3o2)c2cc(OC)c(OC)c(OC)c2)cc1` ?
-- reply 5.47

---

- Test system: ECa-109 cell line
- Test Summary: Antiproliferative activity against human EC109 cells after 48 hrs by MTT assay
- Assay type: functional, cell-based
- Experimental Parameters: ECa-109, 48 h
Value Type: pIC50
pIC50 here is simply -log10 of the concentration when that concentration is written in mol/L.

[[record]]
molecule = "COc1ccc(CN(C(=O)CCCSc2nc3ccccc3o2)c2cc(OC)c(OC)c(OC)c2)cc1"
value_type = "pIC50"
recorded_value = 4.96

[[record]]
molecule = "COc1ccc(CN(C(=O)CSc2nc3ccccc3[nH]2)c2cc(OC)c(OC)c(OC)c2)cc1"
value_type = "pIC50"
recorded_value = 4.37

[[record]]
molecule = "COc1cc2c(c(OC)c1OC)-c1ccc(OC)c(=O)cc1[C@@H](NC(C)=O)CC2 [COLCHICINE]"
value_type = "pIC50"
recorded_value = 5.91

[[record]]
molecule = "COc1ccc(CN(C(=O)CSc2nc3ccccc3o2)c2cc(OC)c(OC)c(OC)c2)cc1"
value_type = "pIC50"
recorded_value = 4.61

[[record]]
molecule = "COc1ccc(CN(C(=O)CSc2nncs2)c2cc(OC)c(OC)c(OC)c2)cc1"
value_type = "pIC50"
recorded_value = 5.01


Here is another molecule to look at.
-- ask For `COc1ccc(CN(C(=O)CCCCSc2nc3ccccc3o2)c2cc(OC)c(OC)c(OC)c2)cc1` , what is its reported pIC50?
-- reply 5.12

---

- Tested on: MGC-803
- Test Summary: Antiproliferative activity against human MGC803 cells after 48 hrs by MTT assay
- Assay type: functional, cell-based
- Experimental Parameters: MGC-803, 48 h
Value Type: IC50 (nM)
Give your result in nM as a bare value.

Reference set, count: 2
[[record]]
structure_string = "COc1ccc(CN(C(=O)CSc2nc3ccccc3[nH]2)c2cc(OC)c(OC)c(OC)c2)cc1"
recorded_value = 1230

[[record]]
structure_string = "COc1ccc(CN(C(=O)CSc2nc3ccccc3o2)c2cc(OC)c(OC)c(OC)c2)cc1"
recorded_value = 450


-- ask What measured IC50 is associated with `COc1ccc(CN(C(=O)CCCSc2nc3ccccc3o2)c2cc(OC)c(OC)c(OC)c2)cc1` on MGC-803?
-- reply 1290

---

- System: ECa-109 cell line
- Test Summary: Antiproliferative activity against human EC109 cells after 48 hrs by MTT assay
- Type: functional, cell-based
- Experimental Parameters: ECa-109, 48 h
Readings of pIC50 for the listed compounds
Expect pIC50 as a plain number equal to -log10 of the molar concentration.

-- ask Which pIC50 is reported for this compound? `COc1ccc(CN(C(=O)CSc2nnnn2C)c2cc(OC)c(OC)c(OC)c2)cc1`
-- reply 5.26

-- ask // returns reported pIC50 for input `COc1ccc(CN(C(=O)CCSc2nc3ccccc3o2)c2cc(OC)c(OC)c(OC)c2)cc1`
-- reply 4.90

-- ask Quick one: pIC50 of `COc1ccc(CN(C(=O)CSc2ccccn2)c2cc(OC)c(OC)c(OC)c2)cc1` ?
-- reply 4.80
